Measured values drawn from ChEMBL document CHEMBL5346968 for this set.

Biological target: D(2) dopamine receptor (Homo sapiens, UniProt P14416)
Sequence (P14416 whole entry): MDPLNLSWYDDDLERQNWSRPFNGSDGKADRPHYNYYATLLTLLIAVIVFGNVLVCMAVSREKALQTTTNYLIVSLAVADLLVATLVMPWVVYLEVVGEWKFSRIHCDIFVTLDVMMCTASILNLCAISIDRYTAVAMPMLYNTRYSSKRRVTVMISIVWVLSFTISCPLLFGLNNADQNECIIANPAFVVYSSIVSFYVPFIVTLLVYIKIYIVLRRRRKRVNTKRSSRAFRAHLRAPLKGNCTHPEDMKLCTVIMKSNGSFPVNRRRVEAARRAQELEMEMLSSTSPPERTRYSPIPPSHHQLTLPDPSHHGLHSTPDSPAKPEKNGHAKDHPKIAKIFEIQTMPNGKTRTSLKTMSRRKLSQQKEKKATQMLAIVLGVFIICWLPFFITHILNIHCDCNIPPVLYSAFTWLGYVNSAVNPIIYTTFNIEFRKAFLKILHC
Experiment: Displacement of [3H]-N-methylspiperone from human dopmaine D2L receptor expressed in CHO cell membrane assessed as inhibition constant by competition binding assay
Assay type: cell membranes
pKi: −log10 of the molar value.
readout: pKi

// known answers, use as guide
COc1ccccc1N1CCN(CCCNC(=O)NCc2ccccc2-c2ccc(-c3ccccc3)cc2)CC1; 6.34
C#CCOc1ccc(NC(=O)NCCCN2CCN(c3ccccc3OC)CC2)c(-c2ccccc2)c1; 7.07
COc1ccc(CNC(=O)NCCCN2CCN(c3ccccc3OC)CC2)c(-c2ccccc2)c1; 6.80

1: COc1ccccc1N1CCN(CCCNC(=O)Nc2ccc(-c3ccccc3)cc2)CC1
2: COc1cccc(-c2ccccc2NC(=O)NCCCN2CCN(c3ccccc3OC)CC2)c1
Select the item whose pKi value is smaller, choosing between 1 and 2 . Give the label of your selection.
1
(1: 6.47, 2: 6.92)

1: COc1ccccc1N1CCN(CCCNC(=O)NCc2ccc(F)cc2-c2ccccc2)CC1
2: COc1ccccc1N1CCN(CCCNC(=O)NCc2ccccc2-c2ccc(C(C)C)cc2)CC1
# min-compare on pKi between 1 and 2 Pick one and reply with its label.
2
